test system: mouse lenses (C57BL/6J); test: In vitro mouse lens elasticity (coverslip method); details: eight month old mouse lenses; 12 hours incubation; 0-500 μM LA; read-out: [LA]50 for increase in lens elasticity

[
  {
    "Molecule": "O=C(O)CCCCC1CCSS1 (stereo not shown)",
    "EC50, µM": 50
  }
]
